# testName: H1N1 influenza NS1A inhibitors, functional cell based assay (AID 504329)
# statedConditions: percent inhibition, at 12.5 µM, hits give high values
The campaign covered roughly 340,000 compounds. About 1,000 (0.29%) were called active. A selection follows. Measured potencies and affinities stand elsewhere.
endpointName: inhibition (%)
One number for each entry, in %.

// known answers, use as guide
>>> df
                                   compound  quantityunit  measuredresult
0           CCC(=O)/C=C1\Sc2ccc(OC)cc2N1CCO             %            7.02
1                      CC(C)n1cc(C#N)c(N)n1             %           -24.1
2  CCC(/C=C1\Sc2ccc(OC)cc2N1CC)=C\c1sc2ccc(OC)cc2[n+]1CCCS(=O)(=O)[O-]             %           -0.43
3  Cc1cccc(C)c1C(=O)N[C@@H](Cc1ccccc1)C(=O)O             %            2.25
4  O=C(CN1C(=O)COc2ccccc21)Nc1ccc2c(c1)OCCO2             %            0.43

Value sought for every listed compound: inhibition.
1. CC(=O)c1ccc(N2CCN(C(=O)Cc3n[nH]c(=O)c4ccccc34)CC2)cc1
2. Cc1ccccc1CN1CCC(n2nccc2NC(=O)CCCc2ccccc2)CC1

Output:
1. 2.74
2. -1.87
